Test system: glioblastoma (GBM) cell lines, U-87 MG cells and T87G cells
Assay: Synergistic effect of omeprazole and anticancer drug, glioblastoma cell lines
Assay type: cell-based
Settings: anticancer drug combined with omeprazole (KN510) versus each treatment alone
measured quantity: synergistic effect of omeprazole and an anticancer drug in combination, glioblastoma (GBM)

These recorded examples may help you get a feel for the data.
{"compound": "O=c1[nH]cc(F)c(=O)[nH]1", "value": "Negative effect"}
{"compound": "CC(=O)O[C@H]1C(=O)[C@@]2(C)[C@H]([C@H](OC(=O)c3ccccc3)[C@]3(O)C[C@H](OC(=O)[C@H](O)[C@@H](NC(=O)c4ccccc4)c4ccccc4)C(C)=C1C3(C)C)[C@]1(OC(C)=O)CO[C@@H]1C[C@@H]2O", "value": "Positive effect"}
{"compound": "Nc1ccn([C@@H]2O[C@H](CO)[C@@H](O)C2(F)F)c(=O)n1", "value": "Negative effect"}
{"compound": "N.N.[Cl][Pt][Cl] [Cisplatin]", "value": "Negative effect"}

Lab note: next compound to report on.
Query string: Provide the documented synergistic effect of omeprazole and an anticancer drug in combination, glioblastoma (GBM) with glioblastoma (GBM) cell lines, U-87 MG cells and T87G cells as the system for CCc1c2c(nc3ccc(OC(=O)N4CCC(N5CCCCC5)CC4)cc13)-c1cc3c(c(=O)n1C2)COC(=O)[C@]3(O)CC
Result string: Positive effect

* * *

Test system: colon cancer cell lines HCT-116 cells and COLO-205 cells
Assay: Synergistic effect of omeprazole and anticancer drug, colon cancer cell lines
Assay type: cell-based
Details: anticancer drug combined with omeprazole (KN510) versus each treatment alone
measured quantity: synergistic effect of omeprazole and an anticancer drug in combination, colon cancer

{"molecule": "CCc1c2c(nc3ccc(OC(=O)N4CCC(N5CCCCC5)CC4)cc13)-c1cc3c(c(=O)n1C2)COC(=O)[C@]3(O)CC", "value": "Positive effect"}
{"molecule": "CC(=O)O[C@H]1C(=O)[C@@]2(C)[C@H]([C@H](OC(=O)c3ccccc3)[C@]3(O)C[C@H](OC(=O)[C@H](O)[C@@H](NC(=O)c4ccccc4)c4ccccc4)C(C)=C1C3(C)C)[C@]1(OC(C)=O)CO[C@@H]1C[C@@H]2O", "value": "Positive effect"}
{"molecule": "N.N.[Cl][Pt][Cl] [Cisplatin]", "value": "Negative effect"}
{"molecule": "Nc1ccn([C@@H]2O[C@H](CO)[C@@H](O)C2(F)F)c(=O)n1", "value": "Negative effect"}

* * *

Test system: UACC62 cells
Assay: SRB assay cancer cell growth rate, UACC62
Type: cell-based
Settings: relative to control (100%), 48 hours, KN510 200 μM, irinotecan 2.5 μM, 5-FU 5 μM, gemcitabine 2.5 μM, paclitaxel 10 nM, cisplatin 1 μM, alone or KN510 + anticancer drug
Recorded UACC62 growth rate average (%) values for a group of molecules are listed next.
Hi! Could you send only the number? It should be in %, unit omitted.

Here are 3 molecules together with their reported answers.
{"molecule": "O=c1[nH]cc(F)c(=O)[nH]1", "unit abbreviation": "%", "UACC62 growth rate average (%)": 52.14}
{"molecule": "CCc1c2c(nc3ccc(OC(=O)N4CCC(N5CCCCC5)CC4)cc13)-c1cc3c(c(=O)n1C2)COC(=O)[C@]3(O)CC", "unit abbreviation": "%", "UACC62 growth rate average (%)": "−35.63"}
{"molecule": "CC(=O)O[C@H]1C(=O)[C@@]2(C)[C@H]([C@H](OC(=O)c3ccccc3)[C@]3(O)C[C@H](OC(=O)[C@H](O)[C@@H](NC(=O)c4ccccc4)c4ccccc4)C(C)=C1C3(C)C)[C@]1(OC(C)=O)CO[C@@H]1C[C@@H]2O", "unit abbreviation": "%", "UACC62 growth rate average (%)": 48.36}

Query string: Hello, I am looking for reported UACC62 growth rate average (%) with UACC62 cells for Nc1ccn([C@@H]2O[C@H](CO)[C@@H](O)C2(F)F)c(=O)n1 . Could you help?
Result string: 53.65

Query string: Report UACC62 growth rate average (%) for N.N.[Cl][Pt][Cl] [Cisplatin] tested on UACC62 cells.
Result string: 62.76

* * *

Test system: OVCAR-8 cells
Test: SRB assay cancer cell growth rate, OVCAR-8
Assay type: cell-based
Settings: relative to control (100%), 48 hours, KN510 200 μM, irinotecan 2.5 μM, 5-FU 5 μM, gemcitabine 2.5 μM, paclitaxel 10 nM, cisplatin 1 μM, alone or KN510 + anticancer drug
Listed here are compounds together with their documented OVCAR-8 growth rate average (%).
Value expressed in %; do not type the unit.

Recorded OVCAR-8 growth rate average (%), per entry:
{"compound": "Nc1ccn([C@@H]2O[C@H](CO)[C@@H](O)C2(F)F)c(=O)n1 [Gemcitabine]", "test target": "OVCAR-8 cells", "value": "−14.25"}
{"compound": "O=c1[nH]cc(F)c(=O)[nH]1 [5-FU, fluorouracil]", "test target": "OVCAR-8 cells", "value": 27.12}
{"compound": "CC(=O)O[C@H]1C(=O)[C@@]2(C)[C@H]([C@H](OC(=O)c3ccccc3)[C@]3(O)C[C@H](OC(=O)[C@H](O)[C@@H](NC(=O)c4ccccc4)c4ccccc4)C(C)=C1C3(C)C)[C@]1(OC(C)=O)CO[C@@H]1C[C@@H]2O [Paclitaxel]", "test target": "OVCAR-8 cells", "value": 12.64}
{"compound": "N.N.[Cl][Pt][Cl] [Cisplatin]", "test target": "OVCAR-8 cells", "value": 51.47}

Query string: // OVCAR-8 growth rate average (%) lookup, key: CCc1c2c(nc3ccc(OC(=O)N4CCC(N5CCCCC5)CC4)cc13)-c1cc3c(c(=O)n1C2)COC(=O)[C@]3(O)CC [Irinotecan]
Result string: 4.70

* * *

System: K562 cells
Experiment: SRB assay cancer cell growth rate, K562
Type: cell-based
Conditions: relative to control (100%), 48 hours, KN510 200 μM, irinotecan 2.5 μM, 5-FU 5 μM, gemcitabine 2.5 μM, paclitaxel 10 nM, cisplatin 1 μM, alone or KN510 + anticancer drug
Each record is given yes if its reported K562 growth rate average (%) is strictly below 50%. Records at or above 50% are given no.

{"molecule": "O=c1[nH]cc(F)c(=O)[nH]1", "class name": "no"}

Query string: # check: K562 growth rate average (%) < 50% for CCc1c2c(nc3ccc(OC(=O)N4CCC(N5CCCCC5)CC4)cc13)-c1cc3c(c(=O)n1C2)COC(=O)[C@]3(O)CC
Result string: yes

Query string: Find out if reported K562 growth rate average (%) for Nc1ccn([C@@H]2O[C@H](CO)[C@@H](O)C2(F)F)c(=O)n1 is less than 50%
Result string: no

Query string: Take the molecule CC(=O)O[C@H]1C(=O)[C@@]2(C)[C@H]([C@H](OC(=O)c3ccccc3)[C@]3(O)C[C@H](OC(=O)[C@H](O)[C@@H](NC(=O)c4ccccc4)c4ccccc4)C(C)=C1C3(C)C)[C@]1(OC(C)=O)CO[C@@H]1C[C@@H]2O and say whether its K562 growth rate average (%) is less than 50%.
Result string: no

Query string: Decide: K562 growth rate average (%) of COc1ccc2[nH]c([S+]([O-])Cc3ncc(C)c(OC)c3C)nc2c1 (stereo not drawn) strictly below 50%?
Result string: yes

Query string: Please state whether K562 growth rate average (%) is below 50% for N.N.[Cl][Pt][Cl] [Cisplatin]
Result string: no
